- MEASUREMENT_TARGET: T1, ヒト組織因子経路インヒビター (human TFPI) (human, UniProt P10646 29-304, limits assumed)
- T1 construct: Coated on Maxisorp plates (ELISA) or amine-coupled to a CM5 chip (Biacore); also called ヒトTFPI; hTFPI
- T1 sequence (looked up): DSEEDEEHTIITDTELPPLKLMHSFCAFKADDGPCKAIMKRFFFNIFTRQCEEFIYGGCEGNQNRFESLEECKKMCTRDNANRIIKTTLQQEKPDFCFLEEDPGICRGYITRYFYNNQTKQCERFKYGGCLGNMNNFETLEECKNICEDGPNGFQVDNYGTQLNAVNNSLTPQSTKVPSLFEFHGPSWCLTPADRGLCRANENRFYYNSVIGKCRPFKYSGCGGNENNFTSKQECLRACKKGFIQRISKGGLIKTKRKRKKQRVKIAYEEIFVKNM
- ASSAY_NOTES: ELISA, Fab in bacterial lysate on human TFPI-coated plate
REPORTED_METRIC: binding result

TP-2A5.1 (Fab, V domains shown, Human Fab (HuCal Gold), made in E. coli TG1) VH: QVQLVESGGGLVQPGGSLRLSCAASGFTFSSYGSWVRQAPGKGLEWVSVISGSGSSTYYADSVKGRFTISRDNSKNTLYLQMNSLRAEDTAVYYCARVNISTHFDVWGQGTLVTVSS VL: DIELTQPPSVSVAPGQTARISCSGDNIPEKYVHWYQQKPGQAPVLVIHGDNNRPSGIPERFSGSNSGNTATLTISGTQAEDEADYYCQSFDAGSYFVFGGGTKLTVLG : binds
TP-4B7 (Fab, V domains shown, Human Fab (HuCal Gold), made in E. coli TG1) VH: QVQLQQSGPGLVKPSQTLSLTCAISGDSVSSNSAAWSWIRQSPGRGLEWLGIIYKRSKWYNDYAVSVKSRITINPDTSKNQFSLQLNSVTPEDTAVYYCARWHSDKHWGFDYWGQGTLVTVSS VL: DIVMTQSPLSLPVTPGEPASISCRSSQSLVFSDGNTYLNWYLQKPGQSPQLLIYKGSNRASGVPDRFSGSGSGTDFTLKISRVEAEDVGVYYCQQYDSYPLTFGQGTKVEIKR : binds
TP-2E3 (Fab, V domains shown, Human Fab (HuCal Gold), made in E. coli TG1) VH: QVQLQQSGPGLVKPSQTLSLTCAISGDSVSSNSAAWGWIRQSPGRGLEWLGMIYYRSKWYNDYAVSVKSRITINPDTSKNQFSLQLNSVTPEDTAVYYCARVNQYTSSDYWGQGTLVTVSS VL: DIALTQPASVSGSPGQSITISCTGTSSDIGGYNYVSWYQQHPGKAPKLMIYGVNYRPSGVSNRFSGSKSGNTASLTISGLQAEDEADYYCSSADKFTMSIVFGGGTKLTVLG : binds
